Give apparent KD of MS2 coat protein for every item shown.
# System: MS2 coat protein
# MEASUREMENT_NOTES: apparent KD of MS2 coat protein; designed switch direction (-1 OFF switch, 1 ON switch): 1; higher = weaker reporter binding
# CONDITION_SET: input ligand: FMN 200 uM

Look over these answered cases.
>  <BIOPOLYMER_SEQUENCE>
GGAGCCGGCCUAGGAUAUUUCAUAAAUAAACAUGAGGAUCACCCAUGUAGGCCAGAAGGCCUUGGGAAGAAGGAGGUCGGCUCC [Loop Effect - U27] (Eterna round: R96, puzzle: Same State NG 2)

>  <MEASUREMENT_TARGET>
MS2 coat protein

>  <apparent KD of MS2 coat protein>
9.58 nM

$$$$
>  <BIOPOLYMER_SEQUENCE>
UGCCGGAUACCGACUACAUGAGGAUCACCCAUGUUAUCUCGUUAGGAUAUACUAACAACAGAUUAGUAGAAGGGACGCGGGCUU [Eternabot solution 23] (Eterna round: R96, puzzle: Same State NG 3)

>  <MEASUREMENT_TARGET>
MS2 coat protein

>  <apparent KD of MS2 coat protein>
25.5 nM

$$$$
>  <BIOPOLYMER_SEQUENCE>
ACAUGAGAUUGAGGAUAUAUUGUACCUACAUGUGACAUGAGGAUCACCCAUGUGGUAAGUAUGACAUAGAAGGCAGAGAUAUGU [Equivalance 84 - Jieux - Same State NG 2] (Eterna round: R96, puzzle: Same State NG 2)

>  <MEASUREMENT_TARGET>
MS2 coat protein

>  <apparent KD of MS2 coat protein>
67.7 nM

$$$$
>  <BIOPOLYMER_SEQUENCE>
GAGUGGUGGAGAGGAUAUACAUUGAUAUUCACUGUAGAAGGUUCUAACAUGAGGAUCACCCAUGUAGGACUAUUCCUGAGAGUU [Parity 54 - Jieux - Same State NG 1] (Eterna round: R96, puzzle: Same State NG 1)

>  <MEASUREMENT_TARGET>
MS2 coat protein

>  <apparent KD of MS2 coat protein>
11 nM

$$$$
>  <BIOPOLYMER_SEQUENCE>
CGACCAAUUGUUUAAUAAACAUGAGGAUCACCCAUGUUUCGUGAGGAUAUCUAGGGUGAAGCACGGGAGAAGGCACUACGGUCA [Eternabot solution 21] (Eterna round: R96, puzzle: Same State NG 3)

>  <MEASUREMENT_TARGET>
MS2 coat protein

>  <apparent KD of MS2 coat protein>
142 nM

$$$$
>  <BIOPOLYMER_SEQUENCE>
ACAUUUAGCUCUUGCACAUGAGGAUCACCCAUGUUCAGUUCACAGGAUAUCUAGUCAAACGGAUCGGAGAAGGGUGGCAGGAGC [Erquzaa] (Eterna round: R96, puzzle: Same State NG 3)

>  <MEASUREMENT_TARGET>
MS2 coat protein

>  <apparent KD of MS2 coat protein>
86.3 nM

$$$$
>  <BIOPOLYMER_SEQUENCE>
CCGAAAUAUGGAGGAUAUGGAGCCUUAUUGGCUCCAGAAGGUCAAAACAUGAGGAUCACCCAUGUAUCGGCGGUCAAUAGACCG [Eli NG1ss - 73] (Eterna round: R96, puzzle: Same State NG 1)

>  <MEASUREMENT_TARGET>
MS2 coat protein

>  <apparent KD of MS2 coat protein>
123 nM

$$$$
>  <BIOPOLYMER_SEQUENCE>
UUGCCGCGGGUAGGAUAUGGUCACACUUCUAAAACAUGAGGAUCACCCAUGUCCGACACAUAAAGCCAGAAGGACCCGCGGCUC [Erisriin] (Eterna round: R96, puzzle: Same State NG 2)

>  <MEASUREMENT_TARGET>
MS2 coat protein

>  <apparent KD of MS2 coat protein>
18.2 nM

$$$$

# context switch: different sequence, same apparent KD of MS2 coat protein
[in] // fetch apparent KD of MS2 coat protein given entry AUAAAACAUGAGGAUCACCCAUGUCAACAAAGUCGAGGAUAUGGGCAAAUAAAAUAAGAACCAGAAGGCGAAUUAU [salish99_ss1_r3_036] (Eterna round: R96, puzzle: Same State 1)
[out] 36.8 nM
